assay: luminescence decrease from intact luciferase reporter – cell-based, single concentration, SaOS-2, counter-screen for Mdm2/MdmX interaction inhibitor project, confirmation (AID 504607); details: SaOS-2 full-length luciferase counterscreen, at 8 µM;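 further: p53-null SaOS-2 cells with luciferase driven by a doxycycline-inducible promoter; compound on cells about two nights before reading with doxycycline added after day one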
About 4,800 (77%) of roughly 6,200 compounds were called active.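 How the source made its calls: active means mean inhibition at 8 µM reaching about 37%, which flags the compound as non-specific (limit read from the data); inactive means the rest.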 So high a share suggests a set chosen from earlier hits. Only a sample is shown.
One label from this list, please: yes = active, no = inactive

Previously resolved entries follow.
Oc1c(CN2CCN(c3ccc(F)cc3)CC2)cc(Cl)c2cccnc12	no
c1ccc2c(c1)CSc1sccc1C2=C1CCNCC1	yes
Cc1c(C(=O)N/N=C/c2ccccc2)[nH]c2c([N+](=O)[O-])cccc12	yes

Now for another entry.
Dear all, I need the recorded test outcome for CC(Nc1nc(C(F)(F)F)nc2ccccc12)c1cccs1 (stereo not given) , thank you.
yes

----------
# key: entry, value: inhibition
assay: luminescence decrease from intact luciferase reporter – cell-based, single concentration, SaOS-2, counter-screen for Mdm2/MdmX interaction inhibitor project, confirmation (AID 504607); conditions: SaOS-2 full-length luciferase counterscreen, at 8 µM, active compounds read high;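 further: p53-null SaOS-2 cells with luciferase driven by a doxycycline-inducible promoter; compound on cells about two nights before reading with doxycycline added after day one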
Among all 6,200 compounds or so, about 4,800 (77%) were called active. The set was probably picked from earlier hits. These entries were drawn from the full list.
Please respond with the number in % and leave the unit unwritten.

Oc1c(CN2CCCC2)cc(COCc2ccccc2)c2cccnc12	32.2
COc1ccc(/C=C/C(=O)Nc2ccc(C34CC5CC(CC(O)(C5)C3)C4)cc2)cc1OC	85.7
CCOc1ccccc1NC(=O)Cn1nnc(C(=O)NCc2cccs2)c1N	80.5
CN(c1ccc2nc3ccccc3c(=O)n2n1)C1CCCCC1	27.7
O=C(/C=C/c1ccc(Cl)c([N+](=O)[O-])c1)c1cccnc1	67.5

Data point: O=C(Nc1ccc2ccccc2c1)Nc1ccc2snnc2c1 ; inhibition = 44.4

For this compound ( CCOC(=O)/C(=C\c1ccc([N+](=O)[O-])cc1)C(=O)c1cc(C(C)=O)c(Nc2ccccc2)s1 ), measured inhibition is 50.6

inhibition reading for COc1ccc(-c2cc(C(=O)N(C)CC(=O)Nc3ccccc3Cl)c3ccccc3n2)cc1OC : 79

Sample Cc1ccccc1OCCOc1ccc([N+](=O)[O-])cc1/C=N/n1cnnc1 ; inhibition observed: 89

Sure, the documented inhibition for c1ccc(C2CCC(N3CCC(N4CCCCC4)CC3)CC2)cc1 (configuration not stated) is 38.2

// inhibition value for Cc1ccc2nc(-c3ccncc3)cc(C(=O)Nc3ccc4c(c3)OCCO4)c2c1 : 44.2

Recorded inhibition (compound CCOc1cc(N2CCOCC2)c(OCC)cc1NC(=O)COc1cccc2cccnc12 ): 39.6

Briefly, inhibition measured for CCCOc1ccccc1C1CC(=O)Nc2cc3c(cc21)OCO3 (configuration not stated) : 74.9

----------
test: luminescence decrease from intact luciferase reporter – cell-based, single concentration, SaOS-2, counter-screen for Mdm2/MdmX interaction inhibitor project, confirmation (AID 504607); conditions: SaOS-2 full-length luciferase counterscreen, at 8 µM;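 further: p53-null SaOS-2 cells with luciferase driven by a doxycycline-inducible promoter; compound on cells about two nights before reading with doxycycline added after day one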
Among all 6,200 compounds or so, about 4,800 (77%) were called active.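 Rule for the calls: active = mean inhibition at 8 µM reaching about 37%, which flags the compound as non-specific (limit read from the data); inactive = the rest.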 The set was probably picked from earlier hits. These entries were drawn from the full list.
One label from this list, please: yes for active, no for inactive

Worked set:
CC(=O)Oc1c(C(=O)c2nnc(C)o2)c(=O)n(Cc2ccccc2)c2ccccc12	yes
CC[C@H]1CN2CCc3cc(OC)c(OC)cc3[C@@H]2C[C@@H]1C[C@H]1NCCc2cc(OC)c(OC)cc21	yes

GET /call?item= Cc1cccc(NC(=O)Nc2cccc(Oc3c(F)c(F)c(F)c(F)c3F)c2)c1 returns the recorded outcome of this test.
no

Any idea what this test logged for CCNS(=O)(=O)c1ccc(NC(=O)Nc2cccc(C(F)(F)F)c2)cc1 ?
yes

So what was the verdict on Cc1cccc(NS(=O)(=O)c2ccc(-c3cnc(C4CC4)o3)cc2)c1 in this test?
yes

Lab log entry: CC1CN(C(=O)CCC(=O)NCCCN2CCC(Cc3ccccc3)CC2)c2cc(Cl)ccc2O1 (centres undefined) — outcome as called in the assay?
yes

Called result for CCOC(=O)c1c(-c2cccc(C)c2)csc1NC(=O)c1c(-c2ccccc2)noc1C
yes

Give the logged outcome of this assay for the following molecule: Cc1ccc2[nH]c(=O)c(CN(CCCN(C)C)C(=O)Nc3cccc(Cl)c3)cc2c1
yes

Please let me know the test result on file for CCN1CCN(CCNC(=O)c2ccc(/C=C3/Sc4ccccc4N(Cc4cccc(C)c4)C3=O)cc2)CC1 .
no
